Origin of measurements: the supplement of paper PMC4862054

# Tested on: MFM-223
# experiment: drug sensitivity score (DSS), CellTiter-Glo (DSS (AUC-based score)); higher = stronger drug effect (viability inhibition or cytotoxicity); extreme values may be limits of the assay
# run.conditions: incubation time: 72 h
Note to self: values exactly at 7 are true. So drug sensitivity score at or above 7 is true, below is false.

1) N#CC[C@H](C1CCCC1)n1cc(-c2ncnc3[nH]ccc23)cn1: false
2) CN1CC[C@H](c2c(O)cc(O)c3c(=O)cc(-c4ccccc4Cl)oc23)[C@H](O)C1: true
3) CCN1CCN(c2ccc(Nc3cc(N(C)C(=O)Nc4c(Cl)c(OC)cc(OC)c4Cl)ncn3)cc2)CC1: true
4) CN1CCC(COc2cnc(-c3cccc(Cn4nc(-c5cccc(C#N)c5)ccc4=O)c3)nc2)CC1: false
5) Nc1ccn([C@@H]2O[C@H](CO)[C@@H](O)[C@@H]2O)c(=O)n1: false
6) Cc1ccc(F)c(NC(=O)Nc2ccc(-c3cccc4[nH]nc(N)c34)cc2)c1: false

**Q:** Would you say CO[C@H]1C[C@@H]2CC[C@@H](C)[C@@](O)(O2)C(=O)C(=O)N2CCCC[C@H]2C(=O)O[C@H]([C@H](C)C[C@@H]2CC[C@@H](OC(=O)C(C)(CO)CO)[C@H](OC)C2)CC(=O)[C@H](C)/C=C(\C)[C@@H](O)[C@@H](OC)C(=O)[C@H](C)C[C@H](C)/C=C/C=C/C=C/1C shows drug sensitivity score at minimum 7?
**A:** true

**Q:** Does the compound Clc1ccc(C(c2ccccc2Cl)C(Cl)Cl)cc1 (stereo unspecified) have recorded drug sensitivity score that is 7 or more?
**A:** false

**Q:** Entry COc1cccc2cc(-c3nc([C@H]4CC[C@H](C(=O)O)CC4)n4ncnc(N)c34)[nH]c12 : is its drug sensitivity score no less than 7?
**A:** false

**Q:** Dear colleague, could you confirm whether Nc1nc(Cl)nc2c1ncn2[C@H]1C[C@H](O)[C@@H](CO)O1 has drug sensitivity score at or above 7?
**A:** false

**Q:** drug sensitivity score >= 7 for COc1cccc2c1C(=O)c1c(O)c3c(c(O)c1C2=O)C[C@@](O)(C(=O)CO)C[C@@H]3O[C@H]1C[C@H](N)[C@H](O)[C@H](C)O1 ?
**A:** false
